# composite z-score values compiled below
Experiment: probe aNOTCH2 binding on compound microarray – biochemical, small-molecule microarray, 635/667 nm fluorescence, primary screen (AID 1121);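 also: score merges feature fluorescence read at 667 nm with its signal to noise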
Conditions: higher = more signal
RECORDED_ENDPOINT: composite z-score

| COMPOUND | VALUE_OBSERVED |
| --- | --- |
| O=C1NC(=O)C2C1C=CC(C(O)C=Cc1ccc([N+](=O)[O-])cc1)N2Nc1ccc(Cl)cc1Cl (stereo not drawn) | 0.39 |
| O=C1C2C=CC(C(O)C=Cc3ccc([N+](=O)[O-])cc3)N(Nc3ccccc3F)C2C(=O)N1c1ccccc1 (stereo not drawn) | -0.147 |
| O=C(O)[C@@]1(CCS(=O)(=O)c2ccccc2)N=C(c2ccc(OCCCO)cc2)O[C@H]1c1ccccc1 | -0.0331 |

---

# composite z-score values compiled below
Assay: probe aInhba binding on compound microarray – biochemical, small-molecule microarray, 635/667 nm fluorescence, primary screen (AID 1148);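 also: score merges 667nm spot fluorescence with signal-to-noise for antibody binding to printed compounds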
Details: higher = more signal

| MOLECULE | composite z-score |
| --- | --- |
| NC(=O)[C@@H]1[C@H]2C(=O)O[C@H](c3ccccc3)[C@H](c3ccccc3)N2[C@H](c2ccc(O)cc2)[C@@]12C(=O)Nc1ccc(C#CC3=CCCCC3)cc12 | 0.468 |
| CCCC[C@@H]1C[C@H]1[C@@H](NC(=O)c1cccnc1)c1ccc(Cl)cc1 | -0.335 |
| O=C(O)[C@H]1C[C@H]2C(=O)N3CCC[C@H]3C(=O)N2[C@H]1c1ccc(O)cc1 | -0.122 |
| CC(CO)N1C(=O)[C@@H]2C3C(=O)OCCC/C=C\[C@H]3OC23C=CCN(CCN2CCOCC2)C(=O)[C@@H]13 (some centres undefined) | -0.201 |
| OB1C=CCC(CCc2ccccc2)O1 (centres undefined) | -0.385 |
| COCCCNC(=O)[C@@H]1c2ccccc2C(=O)N(Cc2ccccc2)[C@H]1c1ccc(CO)cc1 | 0.343 |
| O=C1NC(=O)C2C1C=CC(C(O)c1ccc(I)cc1)N2Nc1ccc(Cl)cc1Cl (centres undefined) | 0.337 |
| C[N+](C)(C)CCCC[C@@H]1NC(=O)[C@@H]2C[C@H](C(=O)NCCCCCCNC(=O)CS)[C@H](c3ccc(O)cc3)N2C1=O | -0.0963 |
| COC(=O)C(CC#Cc1ccc2c(c1)[C@]1(C(=O)N2)[C@H](c2ccccc2OCCO)N2[C@H](c3ccccc3)[C@H](c3ccccc3)OC(=O)[C@H]2[C@@H]1C(N)=O)C(=O)OC | 1.26 |

---

Experiment: viability profiling in MM1S myeloma cells – cell-based, resazurin fluorescence, basal, 24 h, PK04 Diversity Set, profiling panel (AID 1174);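 also: MM1S multiple myeloma cell line; test concentration not given here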
Conditions: higher = more signal, called active from +8 up or from −8 down
RECORDED_ENDPOINT: z-score

| COMPOUND | VALUE_OBSERVED |
| --- | --- |
| C=C(CCCC)C(=O)CC[C@H](OC(=O)c1cccnc1)c1ccc(OCCO)cc1 | -3.27 |
| CO[C@H]1O[C@H](CO)[C@@H](OC(=O)Nc2ccc(Oc3ccccc3)cc2)[C@H](OC(=O)Nc2ccc3c(c2)OCO3)[C@@H]1OC(=O)Nc1ccc2c(c1)OCO2 | -0.949 |
| O=C1NC(=O)C2C1C=CC(C(O)c1ccc(-c3ccccc3)s1)N2Nc1ccc(Cl)cc1Cl (stereo not given) | -1.69 |
| COc1ccc(NN2C(C(O)c3ccc(N(C)C)cc3)C=CC3C(=O)N(C4CCCCC4)C(=O)C32)cc1 (stereo not given) | -0.0447 |
| O=C1[C@H]2C=C(Br)[C@H](C[C@@H]2OCCCCCCO)[C@@]12CO2 | -1.43 |
| O=C1OCC=C[C@H]2OC34C=CCN(CCN5CCOCC5)C(=O)[C@H]3N(CCO)C(=O)[C@@H]4[C@@H]12 (stereo not given in full) | -0.176 |
| C=CC1c2cc(O)c(OC)cc2CCN1Cc1cccc(OC(F)(F)F)c1 (stereo not given) | -4.17 |
| O=C1[C@H]2C=C(I)[C@H](C[C@@H]2OCCCCO)[C@@]12CO2 | -0.536 |
| COc1ccc(C(O)C2C=CC3C(=O)N(C)C(=O)C3N2N(c2ccccc2)c2ccccc2)c2ccccc12 (stereo not given) | -1.57 |
| COc1cc2c(cc1O)C(c1cccs1)N(Cc1cccc(OC(F)(F)F)c1)CC2 (stereo not given) | -1.11 |
| C#CCN1[C@H](/C=C/C2CC2)[C@H](Cc2ccccc2)OC(=O)[C@@H]1Cc1ccccc1 | 0.214 |
| COc1ccc([Si](C)(C)[C@H]2[C@H](CCO)O[C@@]3(C(=O)N(Cc4ccccc4)c4ccc(N5CCCCC5=O)cc43)[C@@H]2C)cc1 | -2.66 |
| COC(=O)c1c(CC[C@@H](CO)NC(=O)NCCc2c[nH]c3ccccc23)oc(C(=O)Cc2ccccc2)c1C(=O)OC | 1.31 |
| COC(=O)[C@@]1(Cc2ccccc2)[C@H]2c3cc(C(=O)N(C)C)n(CCc4c[nH]c5ccc(O)cc45)c3C[C@H]2CN1C(=O)c1ccccc1 | -1.18 |
| COCCOC(=O)N1C(=O)[C@@]2(c3ccccc31)[C@H](C(=O)N1CCc3cc(OC)c(OC)cc3C1)[C@H]1C(=O)O[C@H](c3ccccc3)[C@H](c3ccccc3)N1[C@@H]2c1ccc(O)cc1 | 0.173 |
| O=C(CS)NCCCCCNC(=O)[C@@H]1C[C@@H]2C(=O)NCC(=O)N2[C@@H]1c1cccc(OCCO)c1 | 0.648 |
| CCCCN1CC=CC23O[C@@H]4C=CCCOC(=O)C4[C@H]2C(=O)N(CCCCCO)[C@@H]3C1=O (stereo not given in full) | -0.401 |
| CC(C)=CCCC(C)=CC(O)C1C=CC2C(=O)N(c3ccccc3)C(=O)C2N1Nc1ccc(C(C)C)cc1 (stereo not given) | -0.862 |
| COCCOC(=O)N1C(=O)[C@@]2(c3cc(C#CC4=CCCCC4)ccc31)[C@H](C(N)=O)[C@H]1C(=O)O[C@H](c3ccccc3)[C@H](c3ccccc3)N1[C@@H]2c1ccc(O)cc1 | -2.03 |
| CCOc1cc(C(O)C2C=CC3C(=O)N(c4ccccc4)C(=O)C3N2Nc2ccc(C(C)C)cc2)ccc1O (stereo not given) | -0.988 |
| COCC(=C=CC[C@H](O)c1ccccc1OCCO)CCO | -0.251 |
| COC(=O)[C@@]1(Cc2ccc(OC)cc2)[C@H]2c3cc(C(=O)N4CCCC4)n(Cc4nc5ccccc5[nH]4)c3C[C@H]2CN1C(=O)c1ccccc1 | -1.79 |
| COc1ccc([Si](C)(C)[C@@H]2[C@@H](CC(=O)N3Cc4ccccc4C[C@H]3CO)O[C@]3(C(=O)N(Cc4cccc(N5CCC5=O)c4)c4ccccc43)[C@H]2C)cc1 | -0.922 |
| CCOC(=O)C[C@H]1[C@H](OC(=O)c2cc3ccccc3oc2=O)[C@@H](NC(=O)CC(C)C)c2cc(OCCCO)ccc2N1C(=O)c1ccccc1 | 0.338 |
| C[N+](C)(C)CCCC[C@@H]1NC(=O)[C@H]2C[C@@H](C(=O)NCCCCCCNC(=O)CS)[C@@H](c3ccc(O)cc3)N2C1=O | -0.476 |
